- experimentalSystem: T1, TNFR1 (Homo sapiens, UniProt P19438)
- T1 chain: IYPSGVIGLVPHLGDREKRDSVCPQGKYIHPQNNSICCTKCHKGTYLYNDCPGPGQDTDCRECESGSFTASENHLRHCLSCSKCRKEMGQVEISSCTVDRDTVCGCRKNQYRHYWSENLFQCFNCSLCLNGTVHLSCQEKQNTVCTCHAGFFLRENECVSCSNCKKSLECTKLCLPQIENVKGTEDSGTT
- method: yeast display SC50
propertyName: apparent Kd (screen) (nM)

(a) E82I (designed binder) SMEEEVEKAAKEYEKKKKEAIEKHLEKLKAKDKEAAERFLKELEEAAKEYAKDEAKTMSEEEAKRRAKKYKEKVLLSELSEIEQKEIKEAEEKLVRTILKYVEEAAK
(b) A63R (designed binder) SMEEEVEKAAKEYEKKKKEAIEKHLEKLKAKDKEAAERFLKELEEAAKEYAKDEAKTMSEEERKRRAKKYKEKVLLSELSEEEQKEIKEAEEKLVRTILKYVEEAAK
Q) Between a and b , which one has the lower reported apparent Kd (screen) value? # respond with the chosen item's label
A) a
(a: 0.49 nM, b: 6.43 nM)
